Hey, just so you know, these numbers are from patent US8575114B2.

- Assayed system: hSGLT-2 (Homo sapiens (Human), UniProt P31639)
- Sequence (P31639 whole entry): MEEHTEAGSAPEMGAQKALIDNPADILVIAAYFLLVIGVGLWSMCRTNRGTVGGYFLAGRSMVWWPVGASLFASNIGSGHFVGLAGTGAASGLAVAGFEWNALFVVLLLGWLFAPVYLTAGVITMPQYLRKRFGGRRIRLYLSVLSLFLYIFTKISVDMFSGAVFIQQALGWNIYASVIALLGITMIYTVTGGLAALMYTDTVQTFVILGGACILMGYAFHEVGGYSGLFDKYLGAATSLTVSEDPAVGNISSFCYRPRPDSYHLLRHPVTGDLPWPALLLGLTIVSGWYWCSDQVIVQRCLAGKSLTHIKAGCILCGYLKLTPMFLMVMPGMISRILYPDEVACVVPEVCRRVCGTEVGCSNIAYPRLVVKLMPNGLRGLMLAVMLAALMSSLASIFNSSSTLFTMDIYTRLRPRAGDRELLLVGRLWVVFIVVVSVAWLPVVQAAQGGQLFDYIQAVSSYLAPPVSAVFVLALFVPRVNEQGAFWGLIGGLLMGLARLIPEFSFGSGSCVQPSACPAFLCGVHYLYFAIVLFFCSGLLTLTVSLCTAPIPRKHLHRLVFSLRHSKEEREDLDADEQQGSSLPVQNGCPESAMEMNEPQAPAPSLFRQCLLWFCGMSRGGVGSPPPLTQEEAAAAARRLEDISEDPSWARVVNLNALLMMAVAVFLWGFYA
- Assay notes: [14C]AMG uptake inhibition in CHO-K1/hSGLT-2 cells
- Cond: 4 μM [14C]AMG, 3-hr incubation at 37° C., read-out: SGLT2, IC50
Response field label takes fulfilled when IC50 is strictly below 100 nM and not fulfilled in all other cases.

Solved entries (count: 3):
O=c1n(Cc2cc([C@@H]3O[C@H](CO)[C@@H](O)[C@H](O)[C@H]3O)ccc2Cl)nc2ccc(Br)cn12 fulfilled
O=c1n(Cc2cc([C@@H]3O[C@H](CO)[C@@H](O)[C@H](O)[C@H]3O)ccc2Cl)nc2ccc(CCO)cn12 not fulfilled
O=c1n(Cc2cc([C@@H]3O[C@H](CO)[C@@H](O)[C@H](O)[C@H]3O)ccc2Cl)nc2ccccn12 fulfilled

Request: Is IC50 strictly under 100 nM for the entry `Cc1ccc2nn(Cc3cc([C@@H]4O[C@H](CO)[C@@H](O)[C@H](O)[C@H]4O)ccc3Cl)c(=O)n2c1` ?
Response: not fulfilled

Request: Is IC50 strictly under 100 nM for the entry `O=C1CN(c2ccc(Cc3cc([C@@H]4O[C@H](CO)[C@@H](O)[C@H](O)[C@H]4O)ccc3Cl)cc2)C(=O)N1C(c1ccccc1)(c1ccccc1)c1ccccc1` ?
Response: not fulfilled

Request: Is IC50 strictly under 100 nM for the entry `O=c1n(Cc2cc([C@@H]3O[C@H](CO)[C@@H](O)[C@H](O)[C@H]3O)ccc2Cl)nc2cc(C(F)(F)F)ccn12` ?
Response: not fulfilled

* * *

- Assayed system: UniProtKB P13866
- Assay notes: [14C]AMG uptake inhibition in CHO-K1/hSGLT-1 cells
- Cond: 4 μM [14C]AMG, 3-hr incubation at 37° C., read-out: SGLT-1, IC50
pIC50: −log10 of the molar value.
// pIC50 lookup, one value per entry

Solved entries:
O=c1n(Cc2cc([C@@H]3O[C@H](CO)[C@@H](O)[C@H](O)[C@H]3O)ccc2Cl)nc2cc(C(F)(F)F)ccn12 4.31
CN1C(=O)N(c2ccc(Cc3cc([C@@H]4O[C@H](CO)[C@@H](O)[C@H](O)[C@H]4O)ccc3Cl)cc2)C(C)(C)C1=O < 4.05
O=c1n(Cc2cc([C@@H]3O[C@H](CO)[C@@H](O)[C@H](O)[C@H]3O)ccc2Cl)nc2ccc(CO)cn12 < 4.05

Request: Value lookup for pIC50; key = `O=c1n(Cc2cc([C@@H]3O[C@H](CO)[C@@H](O)[C@H](O)[C@H]3O)ccc2Cl)nc2cc(CO)ccn12`
Response: < 4.05

* * *

// pIC50 lookup, one value per entry
- Assayed system: hSGLT-1 (Homo sapiens (Human), UniProt P13866)
- Sequence (P13866 whole entry): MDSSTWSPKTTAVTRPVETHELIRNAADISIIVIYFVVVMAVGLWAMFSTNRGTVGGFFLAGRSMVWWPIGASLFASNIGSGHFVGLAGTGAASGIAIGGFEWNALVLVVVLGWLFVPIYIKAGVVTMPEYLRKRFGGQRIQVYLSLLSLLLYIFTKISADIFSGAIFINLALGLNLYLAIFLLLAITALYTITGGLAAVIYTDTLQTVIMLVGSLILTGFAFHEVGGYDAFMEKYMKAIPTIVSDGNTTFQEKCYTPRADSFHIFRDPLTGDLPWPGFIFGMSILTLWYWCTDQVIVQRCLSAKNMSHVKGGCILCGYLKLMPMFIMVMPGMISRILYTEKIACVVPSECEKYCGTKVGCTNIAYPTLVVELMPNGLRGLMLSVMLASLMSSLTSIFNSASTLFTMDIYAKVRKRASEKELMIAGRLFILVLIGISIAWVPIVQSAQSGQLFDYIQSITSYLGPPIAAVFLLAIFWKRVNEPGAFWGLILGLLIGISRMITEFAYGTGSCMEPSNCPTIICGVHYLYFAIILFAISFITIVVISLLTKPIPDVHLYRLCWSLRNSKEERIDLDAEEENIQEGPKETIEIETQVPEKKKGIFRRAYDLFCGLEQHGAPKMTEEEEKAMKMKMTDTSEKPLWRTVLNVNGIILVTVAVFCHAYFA
- Assay notes: [14C]AMG uptake inhibition in CHO-K1/hSGLT-1 cells
- Cond: 4 μM [14C]AMG, 3-hr incubation at 37° C., read-out: SGLT-1, IC50
Expect pIC50 as a plain number equal to -log10 of the molar concentration.

Solved entries:
Molecule	Assayed system	Number
O=c1n(Cc2cc([C@@H]3O[C@H](CO)[C@@H](O)[C@H](O)[C@H]3O)ccc2Cl)nc2ccc(Br)cn12 [I-10]	hSGLT-1 (Homo sapiens (Human), UniProt P13866)	4.34
O=C1CN(c2ccc(Cc3cc([C@@H]4O[C@H](CO)[C@@H](O)[C@H](O)[C@H]4O)ccc3Cl)cc2)C(=O)N1C(c1ccccc1)(c1ccccc1)c1ccccc1 [III-1]	hSGLT-1 (Homo sapiens (Human), UniProt P13866)	5.20
CC(C)N1C(=O)CN(c2ccc(Cc3cc([C@@H]4O[C@H](CO)[C@@H](O)[C@H](O)[C@H]4O)ccc3Cl)cc2)C1=O [III-4]	hSGLT-1 (Homo sapiens (Human), UniProt P13866)	4.45
O=c1n(Cc2cc([C@@H]3O[C@H](CO)[C@@H](O)[C@H](O)[C@H]3O)ccc2Cl)nc2ccc(Cl)cn12 [I-8]	hSGLT-1 (Homo sapiens (Human), UniProt P13866)	4.21
O=c1c2ccoc2ccn1Cc1cc([C@@H]2O[C@H](CO)[C@@H](O)[C@H](O)[C@H]2O)ccc1Cl [II-2]	hSGLT-1 (Homo sapiens (Human), UniProt P13866)	4.15
Cc1ccc2nn(Cc3cc([C@@H]4O[C@H](CO)[C@@H](O)[C@H](O)[C@H]4O)ccc3Cl)c(=O)n2c1 [I-2]	hSGLT-1 (Homo sapiens (Human), UniProt P13866)	4.17

Request: Value lookup for pIC50; key = CCN1C(=O)CN(c2ccc(Cc3cc([C@@H]4O[C@H](CO)[C@@H](O)[C@H](O)[C@H]4O)ccc3Cl)cc2)C1=O [III-2]
Response: 4.76

Request: Value lookup for pIC50; key = CN1CC(=O)N(c2ccc(Cc3cc([C@@H]4O[C@H](CO)[C@@H](O)[C@H](O)[C@H]4O)ccc3Cl)cc2)C1=O [III-3]
Response: 7.08

Request: Value lookup for pIC50; key = O=c1n(Cc2cc([C@@H]3O[C@H](CO)[C@@H](O)[C@H](O)[C@H]3O)ccc2Cl)nc2ccccn12 [I-1]
Response: 4.62

* * *

// pIC50 lookup, one value per entry
- Assayed system: hSGLT-2 (Homo sapiens (Human), UniProt P31639)
- Assay notes: [14C]AMG uptake inhibition in CHO-K1/hSGLT-2 cells
- Cond: 4 μM [14C]AMG, 3-hr incubation at 37° C., read-out: SGLT2, IC50
Expect pIC50 as a plain number equal to -log10 of the molar concentration.

Solved entries:
Molecule	Reported property	Number
OC[C@H]1O[C@@H](c2ccc(Cl)c(Cn3nc4ccccn4c3=S)c2)[C@H](O)[C@@H](O)[C@@H]1O [I-7]	pIC50	6.50
CC(C)N1C(=O)CN(c2ccc(Cc3cc([C@@H]4O[C@H](CO)[C@@H](O)[C@H](O)[C@H]4O)ccc3Cl)cc2)C1=O [III-4]	pIC50	7.63
O=c1n(Cc2cc([C@@H]3O[C@H](CO)[C@@H](O)[C@H](O)[C@H]3O)ccc2Cl)nc2ccc(Cl)cn12 [I-8]	pIC50	7.09
Cc1cc2nn(Cc3cc([C@@H]4O[C@H](CO)[C@@H](O)[C@H](O)[C@H]4O)ccc3Cl)c(=O)n2cc1Cl [I-12]	pIC50	7.44
CN1C(=O)N(c2ccc(Cc3cc([C@@H]4O[C@H](CO)[C@@H](O)[C@H](O)[C@H]4O)ccc3Cl)cc2)C(C)(C)C1=O [III-5]	pIC50	6.31

Request: Value lookup for pIC50; key = O=c1n(Cc2cc([C@@H]3O[C@H](CO)[C@@H](O)[C@H](O)[C@H]3O)ccc2Cl)nc2ccc(CO)cn12 [I-6]
Response: 6.84

Request: Value lookup for pIC50; key = OC[C@H]1O[C@@H](c2ccc(Cl)c(Cc3ccc4ncnn4c3)c2)[C@H](O)[C@@H](O)[C@@H]1O [II-1]
Response: 6.65

* * *

- Assayed system: hSGLT-2 (Homo sapiens (Human), UniProt P31639)
- Assay notes: [14C]AMG uptake inhibition in CHO-K1/hSGLT-2 cells
- Assay type: cell-based
- Cond: 4 μM [14C]AMG, 3-hr incubation at 37° C., read-out: SGLT2, IC50
// IC50 lookup, one value per entry
Write the answer as a number in nM, unit excluded.

CCN1C(=O)CN(c2ccc(Cc3cc([C@@H]4O[C@H](CO)[C@@H](O)[C@H](O)[C@H]4O)ccc3Cl)cc2)C1=O 11.4
CN1CC(=O)N(c2ccc(Cc3cc([C@@H]4O[C@H](CO)[C@@H](O)[C@H](O)[C@H]4O)ccc3Cl)cc2)C1=O 148
O=c1n(Cc2cc([C@@H]3O[C@H](CO)[C@@H](O)[C@H](O)[C@H]3O)ccc2Cl)nc2ccc(C(F)(F)F)cn12 991

Request: Quick check: IC50 on hSGLT-2 (Homo sapiens (Human), UniProt P31639), item `O=c1n(Cc2cc([C@@H]3O[C@H](CO)[C@@H](O)[C@H](O)[C@H]3O)ccc2Cl)nc2cc(CO)ccn12` ?
Response: 170

Request: Quick check: IC50 on hSGLT-2 (Homo sapiens (Human), UniProt P31639), item `O=c1n(Cc2cc([C@@H]3O[C@H](CO)[C@@H](O)[C@H](O)[C@H]3O)ccc2Cl)nc2ccc(F)cn12` ?
Response: 222

Request: Quick check: IC50 on hSGLT-2 (Homo sapiens (Human), UniProt P31639), item `Cc1ccn2c(=O)n(Cc3cc([C@@H]4O[C@H](CO)[C@@H](O)[C@H](O)[C@H]4O)ccc3Cl)nc2c1` ?
Response: 109

Request: Quick check: IC50 on hSGLT-2 (Homo sapiens (Human), UniProt P31639), item `O=c1c2ccoc2ccn1Cc1cc([C@@H]2O[C@H](CO)[C@@H](O)[C@H](O)[C@H]2O)ccc1Cl` ?
Response: 542
